# Assay procedure: Drug uptake in C57BL/6J mouse brain at 10 mg/kg, po incubated for 3 hrs by LC-MS/MS analysis
# Type: ADME, organism-based
# Test conditions: read-out: Drug uptake
Measurement type: concentration at 3 h (µM)

Query smiles | Observed
C[C@@H]1COCCN1c1nc(N2CCOC[C@@H]2C)nc2sc(-c3cc[nH]n3)nc12 | 5.82

----------
Dear all, this message contains pIC50 results, target or system Cytochrome P450 2C9 (Homo sapiens).
pIC50: −log10 of the molar value.
Measurement type: pIC50

Query smiles | Measurement type | Readout qualifier | Observed
C[C@@H]1COCCN1c1nc(N2CCOC[C@@H]2C)nc2[nH]c(-c3cccc4[nH]ccc34)nc12 | pIC50 | = | 5.70
C[C@@H]1COCCN1c1nc(N2CCOC[C@@H]2C)nc2sc(-c3cc[nH]n3)nc12 | pIC50 | < | 4.30
